- subject-of-test: MAGI2_3, Q86UL8
- Sequence (Q86UL8 600-682): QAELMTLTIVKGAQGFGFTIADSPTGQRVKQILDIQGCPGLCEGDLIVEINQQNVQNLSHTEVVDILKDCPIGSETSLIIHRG
- assay-protocol: holdup assay
- Design: key: below the threshold = too weak to quantify, mostly under pKd 3.1 to 4
- experimental-setup: plain residues with an end cap or a label only (N-terminal biotin on a linker: ado-ado)

binder	pKd
VKQYADVEGF [HNRNPK, P61978;P61978-2]	below the threshold
IQISELETNV [SLC1A7, O00341]	3.96
RSPVATATSC [DUSP5, Q16690]	below the threshold
PDSYHRRDFW [U2AF2, P26368]	below the threshold
